Structures can show the parent of a compound that is named as a salt.
The following compounds are listed with their measured melting point values.

compound | melting point
Cn1cc(C2=C(c3cccc(OCCCO[Si](C)(C)C(C)(C)C)c3)C(=O)NC2=O)c2ccccc21 | 151.2 to 151.7 °C
Cn1cc(C2=C(c3cccc(OC[C@H](O)CO)c3)C(=O)NC2=O)c2ccccc21 [II-3] | 177.7 to 178 °C
Cn1cc(C2=C(c3cccc(N4CCC(O)CC4)c3)C(=O)NC2=O)c2ccccc21 [II-29] | 136 to 141 °C
Cn1cc(C2=C(c3cccc(NCCO)c3)C(=O)NC2=O)c2ccccc21 (as salt: hydrochloride) [II-19] | 170.3 to 170.6 °C
Cn1cc(C2=C(c3cccc(OCCCO)c3)C(=O)NC2=O)c2ccccc21 [II-20] | 150.2 to 152.6 °C

Exercise: Any idea what its melting point is? The compound is Cn1cc(C2=C(c3cccc(OCC4COC(C)(C)O4)c3)C(=O)NC2=O)c2ccccc21 (stereo in doubt) [II-6]
Key: 220.8 to 221.2 °C

Exercise: Same question for Cn1cc(C2=C(c3ccccc3OCC3COC(C)(C)O3)C(=O)NC2=O)c2ccccc21 (racemic) [Compound I-2] please.
Key: 220.8 to 221.2 °C

Exercise: Similarly, Cn1cc(C2=C(c3cccc(OCCN)c3)C(=O)NC2=O)c2ccccc21 (as salt: hydrochloride) [II-1] ?
Key: 182.4 to 187 °C

Exercise: # repeat for Cn1cc(C2=C(c3cccc(NCCCO[Si](C)(C)C(C)(C)C)c3)C(=O)NC2=O)c2ccccc21
Key: 58 to 65 °C

Exercise: Here is the next compound: O=C1NC(=O)C(c2cn(CCCO)c3ccc(F)cc23)=C1c1cccc(NCC(O)CO)c1 (racemic) [III-6]
Key: 118 to 125 °C
